Test system: CP286
Assay: qHTS profiling for inhibitors of Plasmodium falciparum proliferation (AID 504749); note: nearly all actives have a fitted effect of over 60% in size
Details: P. falciparum in erythrocytes, SYBR Green DNA, 72 h; series mostly up to 28.7 µM
Results filed as inconclusive are left out. The source made the active and inactive calls. Calls come from the whole dose curve; as a rule, active = well fitted inhibition curve with a large enough effect; inconclusive = small, poorly fitted or top-dose-only effect; inactive = flat fitted curve, though single readings scatter.
Outcomes: active, inactive

# compound, tested-target, class-label
records = [
    ("O=C(O)[C@@H]1CSCN1", "CP286", "inactive"),
    ("O=c1[nH]c(=O)c2[nH]c(=O)[nH]c2[nH]1", "CP286", "inactive"),
    ("Oc1cccc(O)c1", "CP286", "inactive"),
    ("Cc1ccc2nc(N)[nH]c(=O)c2c1Sc1ccncc1", "CP286", "active"),
    ("O=C1NC(=O)[C@@]2(CCOc3ccc(F)cc32)N1", "CP286", "inactive"),
    ("CCCCN(CCCC)CCCOC(=O)c1ccc(N)cc1", "CP286", "inactive"),
    ("O=C(O)CC(O)C(=O)O (centres undefined)", "CP286", "inactive"),
    ("CSc1ccc2c(c1)N(CCC1CCCCN1C)c1ccccc1S2 (centres undefined)", "CP286", "active"),
    ("CCCCOc1cc(C(=O)OCCN(CC)CC)ccc1N", "CP286", "inactive"),
    ("CCOC(CN1CCN(CC(C)C(=O)c2ccccc2)CC1)c1ccccc1 (centres undefined)", "CP286", "inactive"),
    ("CC1=C(/C=C/C(C)=C/C=C/C(C)=C/C(=O)O)C(C)(C)CCC1", "CP286", "inactive"),
    ("C[C@]12C[C@H](O)[C@H]3[C@@H](CCC4=CC(=O)CC[C@@]43C)[C@@H]1CC[C@@H]2C(=O)CO", "CP286", "inactive"),
    ("CC(C)(C)C(=O)NCCCC(=O)O", "CP286", "inactive"),
    ("C[C@H](N)[C@H](O)c1cccc(O)c1", "CP286", "inactive"),
    ("Nc1ccc(S(=O)(=O)Nc2ccc(Cl)nn2)cc1", "CP286", "inactive"),
    ("Cc1cc2c(cc1S(N)(=O)=O)S(=O)(=O)CCC2", "CP286", "inactive"),
    ("COC(=O)C1=C(C)NC(C)=C(C(=O)OC)C1c1ccccc1[N+](=O)[O-]", "CP286", "inactive"),
    ("O=C1NS(=O)(=O)c2ccccc21", "CP286", "inactive"),
    ("CCCCN1CCCC[C@H]1C(=O)Nc1c(C)cccc1C", "CP286", "inactive"),
    ("CCn1cc(C(=O)O)c(=O)c2cnc(N3CCNCC3)nc21", "CP286", "inactive"),
    ("CC(CN1c2ccccc2Sc2ccccc21)N(C)C (centres undefined)", "CP286", "inactive"),
    ("CC1=C(CC(=O)O)c2cc(F)ccc2/C1=C\\c1ccc(S(C)=O)cc1 (centres undefined)", "CP286", "inactive"),
    ("NC(=O)NNc1ccccc1", "CP286", "inactive"),
    ("CC(C)(C)NCC(O)COc1ccc(NC(=O)NC2CCCCC2)cc1 (centres undefined)", "CP286", "inactive"),
]

###

Test system: N140
Assay: qHTS profiling for inhibitors of Plasmodium falciparum proliferation (AID 504749); note: nearly all actives have a fitted effect of over 60% in size
Conditions: P. falciparum in erythrocytes, SYBR Green DNA, 72 h; series mostly up to 28.7 µM
Results filed as inconclusive are left out. Activity calls are given as the source filed them. Calls come from the whole dose curve; as a rule, active = well fitted inhibition curve with a large enough effect; inconclusive = small, poorly fitted or top-dose-only effect; inactive = flat fitted curve, though single readings scatter.
Classes used: TRUE = active, FALSE = inactive

# compound, tested-target, class-label
rows = [
    ("NC1CCN(c2cccc(Cl)n2)CC1", "N140", "FALSE"),
    ("CC12CCC(CC1)C(C)(C)O2", "N140", "FALSE"),
    ("OCc1cc(C(O)CNCCCCCCOCCCCc2ccccc2)ccc1O (stereo not drawn)", "N140", "FALSE"),
    ("O=C(O)CC(O)C(=O)O (stereo not drawn)", "N140", "FALSE"),
    ("Oc1cn2c(n1)Nc1ccc(Cl)c(Cl)c1C2", "N140", "FALSE"),
    ("CC[C@@]1(c2ccccc2)NC(=O)N(C)C1=O", "N140", "FALSE"),
    ("CNC(=O)Oc1ccc2c(c1)[C@]1(C)CCN(C)[C@@H]1N2C", "N140", "TRUE"),
    ("CC(=O)NC(Cc1ccccc1)C(=O)O (stereo not drawn)", "N140", "FALSE"),
]

###

Experiment: qHTS profiling for inhibitors of Plasmodium falciparum proliferation (AID 504749); note: nearly all actives have a fitted effect of over 60% in size;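 for activity, negative = inhibition: 0% = DMSO vehicle and full inhibition = artemisinin control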
Conditions: P. falciparum in erythrocytes, SYBR Green DNA, 72 h; at 28.7 µM (top of the series); parasite line A
Results filed as inconclusive are left out. Activity calls are given as the source filed them. Calls follow the shape of the dose curve; as a rule, active = well fitted inhibition curve with a large enough effect; inconclusive = small, poorly fitted or top-dose-only effect; inactive = flat fitted curve, though single readings scatter.
Each record here notes measured activity, negative = inhibition.

# molecule, activity, negative = inhibition
measured = [
    ("CCCCCCCCCCCCCCCC(=O)NCCO", "5.7% (inactive)"),
    ("Cc1cc(C(C#N)c2ccc(Cl)cc2)c(Cl)cc1NC(=O)c1cc(I)cc(I)c1O (stereo not drawn)", "8.49% (inactive)"),
    ("OCC(O)CN1CCN(c2ccccc2)CC1 (stereo not drawn)", "5.92% (inactive)"),
    ("COc1ccc(Cl)cc1C(=O)NCCc1ccc(S(=O)(=O)NC(=O)NC2CCCCC2)cc1", "10.8% (inactive)"),
    ("Nc1nc2c(ncn2CCC(CO)CO)c(=O)[nH]1", "3.65% (inactive)"),
    ("Oc1cn2c(n1)Nc1ccc(Cl)c(Cl)c1C2", "7.35% (inactive)"),
    ("O=Cc1ccccc1C=O", "-1.21% (inactive)"),
    ("CCN(CC)CCNC(=O)c1cc(Cl)c(N)cc1OC", "11.7% (inactive)"),
    ("O=C(O)CN1C(=O)c2cccc3cccc(c23)C1=O", "-2.87% (inactive)"),
    ("Oc1cccc(O)c1", "9.04% (inactive)"),
    ("CC1=C(/C=C/C(C)=C/C=C/C(C)=C/C(=O)O)C(C)(C)CCC1", "11.8% (inactive)"),
    ("CCCCOC(=O)c1ccc(O)cc1", "8.74% (inactive)"),
    ("CC1=C(CC(=O)O)c2cc(F)ccc2/C1=C\\c1ccc(S(C)=O)cc1 (stereo not drawn)", "-3.64% (inactive)"),
]

###

Reported max response values for a set of molecules
System: NIH3T3
Test: Cytotoxic Profiling of Annotated Libraries Using Quantitative High-Throughput Screening (AID 1296008)
Settings: Five cell lines viability, CellTiter-Glo ATP luminescence, 48-72 h; active compounds read low
Inconclusive results are not listed.
measurement-kind: max response (%)

# substance-smiles, measurement-units, reported-measurement
records = [
    ("CCCn1cnc2c1c(=O)n(CCCCC(C)=O)c(=O)n2C", "%", -3.42),
    ("[Cl][In]([Cl])[Cl]", "%", -11.3),
    ("Nc1ccc(S(=O)(=O)Nc2ccc(Cl)nn2)cc1", "%", 1.13),
]

###

Test system: CP215
Experiment: qHTS profiling for inhibitors of Plasmodium falciparum proliferation (AID 504749); note: nearly all actives have a fitted effect of over 60% in size
Conditions: P. falciparum in erythrocytes, SYBR Green DNA, 72 h; series mostly up to 28.7 µM
Results filed as inconclusive are left out. The source made the active and inactive calls. Calls come from the whole dose curve; as a rule, active = well fitted inhibition curve with a large enough effect; inconclusive = small, poorly fitted or top-dose-only effect; inactive = flat fitted curve, though single readings scatter.
Possible outcomes: Y (active), N (inactive)

# molecule, class-label
rows = [
    ("Nc1ccc(S(=O)(=O)NC(=O)c2ccccc2)cc1", "N"),
    ("COc1ccc2c(c1)C(=O)N(CCc1ccc(S(=O)(=O)NC(=O)NC3CCCCC3)cc1)C(=O)C2(C)C", "N"),
    ("CCOc1ccc2ccccc2c1C(=O)N[C@@H]1C(=O)N2[C@@H]1SC(C)(C)[C@@H]2C(=O)O", "N"),
    ("CN(C)CCCN1c2ccccc2Sc2ccc(Cl)cc21", "Y"),
    ("CC1=C(CC(=O)O)c2cc(F)ccc2/C1=C\\c1ccc(S(C)=O)cc1 (configuration not stated)", "N"),
    ("CC1(C)CO[C@@H](CC(=O)O)CN1", "N"),
    ("CC(=O)Oc1ccc(C2(c3ccc(OC(C)=O)cc3)C(=O)Nc3ccccc32)cc1", "N"),
    ("NCCNCCNCCNCCN", "N"),
    ("CC(=O)CCC(=O)O", "N"),
    ("CCCCC(CC)COC(=O)c1ccccc1O (configuration not stated)", "N"),
    ("O=C1O[C@H]([C@@H](O)CO)C(O)=C1O", "N"),
    ("C[C@H](N)[C@H](O)c1cccc(O)c1", "N"),
]

###

Target: Glucocorticoid receptor (Homo sapiens) (UniProt P04150)
Sequence (P04150 whole entry, looked up): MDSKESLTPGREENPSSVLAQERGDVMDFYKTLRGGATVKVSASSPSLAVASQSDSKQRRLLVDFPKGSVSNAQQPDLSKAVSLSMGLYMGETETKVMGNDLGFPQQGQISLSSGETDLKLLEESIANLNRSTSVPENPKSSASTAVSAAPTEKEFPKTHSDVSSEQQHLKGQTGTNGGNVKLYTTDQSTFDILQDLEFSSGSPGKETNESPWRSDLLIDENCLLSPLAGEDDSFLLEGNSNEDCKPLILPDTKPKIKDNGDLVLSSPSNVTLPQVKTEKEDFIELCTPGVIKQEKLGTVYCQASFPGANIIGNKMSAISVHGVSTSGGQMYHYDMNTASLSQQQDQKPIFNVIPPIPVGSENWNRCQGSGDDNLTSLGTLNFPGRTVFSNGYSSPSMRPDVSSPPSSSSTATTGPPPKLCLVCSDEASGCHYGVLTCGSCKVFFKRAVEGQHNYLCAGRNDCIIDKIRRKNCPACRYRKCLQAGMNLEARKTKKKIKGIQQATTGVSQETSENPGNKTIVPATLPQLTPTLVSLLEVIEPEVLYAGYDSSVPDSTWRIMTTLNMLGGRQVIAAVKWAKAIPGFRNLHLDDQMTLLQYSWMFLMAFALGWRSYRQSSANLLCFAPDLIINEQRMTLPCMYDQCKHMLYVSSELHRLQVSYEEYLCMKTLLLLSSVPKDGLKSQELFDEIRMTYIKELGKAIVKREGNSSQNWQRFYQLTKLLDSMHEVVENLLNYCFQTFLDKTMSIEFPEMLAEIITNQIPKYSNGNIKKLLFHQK
Test: qHTS assay for small molecule agonists of glucocorticoid receptor signaling (AID 588532);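 note: 100% = dexamethasone at 0.1 µM and 0% = DMSO only wells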
Conditions: HeLa MMTV-bla, beta-lactamase ratio, agonist, 18 h; active compounds read high; percent of dexamethasone control, DMSO zero
Inconclusive results are not listed. Active and inactive are the calls of the source. Calls come from the whole dose curve; as a rule, active = well fitted curve in the direction sought with a large enough effect in the signal ratio, with a control signal flat; inconclusive = small, poorly fitted or top-dose-only effect, or a change in a side signal; inactive = no such curve, though single readings can be large or run the other way; the % refers to the signal ratio.
measurement-kind: activation

# compound, tested-target, reported-measurement
data = [
    ("CNC(=O)Oc1ccc2c(c1)[C@]1(C)CCN(C)[C@@H]1N2C", "Glucocorticoid receptor (Homo sapiens) (UniProt P04150)", "-3.85% (inactive)"),
    ("CN(C)CCCN1c2ccccc2Sc2ccc(Cl)cc21", "Glucocorticoid receptor (Homo sapiens) (UniProt P04150)", "7.77% (inactive)"),
    ("CC12CCC(CC1)C(C)(C)O2", "Glucocorticoid receptor (Homo sapiens) (UniProt P04150)", "-0.499% (inactive)"),
    ("CCCCC(CC)COC(=O)c1ccccc1O (stereo not given)", "Glucocorticoid receptor (Homo sapiens) (UniProt P04150)", "-10.3% (inactive)"),
    ("O=C1c2c(O)cccc2Cc2cccc(O)c21", "Glucocorticoid receptor (Homo sapiens) (UniProt P04150)", "-1.63% (inactive)"),
    ("NCCNCCNCCN", "Glucocorticoid receptor (Homo sapiens) (UniProt P04150)", "21.8% (inactive)"),
    ("Cc1cccc(Nc2cc(Cl)nc(SCC(=O)O)n2)c1C", "Glucocorticoid receptor (Homo sapiens) (UniProt P04150)", "-9.26% (inactive)"),
    ("Cc1cc(CC(=O)O)n(C)c1C(=O)c1ccc(Cl)cc1", "Glucocorticoid receptor (Homo sapiens) (UniProt P04150)", "-2.23% (inactive)"),
    ("Nc1ccc(S(=O)(=O)Nc2nccs2)cc1", "Glucocorticoid receptor (Homo sapiens) (UniProt P04150)", "-6.26% (inactive)"),
    ("Cc1cc2nc3c(=O)[nH]c(=O)nc-3n(C[C@H](O)[C@H](O)[C@H](O)CO)c2cc1C", "Glucocorticoid receptor (Homo sapiens) (UniProt P04150)", "-14% (inactive)"),
]
